The values you see were collected from the Human Domainome abundance scans (Beltran et al. 2025).

B1: Chromodomain-helicase-DNA-binding protein 3, residues 374 to 426; numbered along this chain, Q12873 (parent)
chain: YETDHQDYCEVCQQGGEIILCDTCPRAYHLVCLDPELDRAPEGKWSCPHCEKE

# Variants of: B1
# experimental_protocol: abundance fitness (aPCA) (normalised: wild type 0, dead -1); higher = more abundant; growth selection in yeast, the domain comes from the species named
# measurement_context: Homo sapiens
The entries below are paired with their reported abundance fitness.
quantity_name: abundance fitness

>>> print(df.to_string())
    mutation_code      quantity_name  assay_result
 0           L37F  abundance fitness        -0.426
 1           C24T  abundance fitness        -0.687
 2            Q6H  abundance fitness        -0.014
 3           P25M  abundance fitness        -0.227
 4            Q6P  abundance fitness        -0.353
 5           C21Q  abundance fitness        -0.822
 6           T23I  abundance fitness        -0.189
 7            Q6F  abundance fitness        -0.579
 8           D22Y  abundance fitness        -0.142
 9            Y1L  abundance fitness         0.172
10           R26G  abundance fitness        -0.046
